# Tested on: pBR322 plasmid
# test.method.notes: Ethidium bromide assay, DNA-binding effects on plasmid pBR322
# reported.conditions: 10 μM compound, plasmid pBR322 with ethidium bromide, 25 °C 30 min; % fluorescence relative to controls (no drug = 100%)
The reader will find reported Decrease of Fluorescence values listed item by item below.
Returns: string containing the number followed by the unit.

Below, 5 compounds whose answers are already recorded.
COc1cc(CCC(=O)Nc2ccc(N)cc2)cc(OC)c1OC | 71.43%
CN(Cc1cnc2nc(N)nc(N)c2n1)c1ccc(C(=O)N[C@@H](CCC(=O)O)C(=O)O)cc1 [MTX, methotrexate, reference compound] | 100%
COc1cc(C(=O)Nc2cnc(N)nc2)cc(OC)c1OC | 71.43%
COc1cc(C(=O)Nc2ccc(N)cc2)cc(OC)c1OC | 80.43%
COc1cc(CCC(=O)Nc2cnc(N)nc2)cc(OC)c1OC | 69.92%

Query string: // Input: COc1cc(CC(=O)Nc2ccc(N)cc2)cc(OC)c1OC . Output its Decrease of Fluorescence only.
Result string: 69.17%

Query string: // Input: COc1cc(CC(=O)Nc2cnc(N)nc2)cc(OC)c1OC . Output its Decrease of Fluorescence only.
Result string: 45.18%

Query string: // Input: COc1cc(Cc2cnc(N)nc2N)cc(OC)c1OC [TMP, reference compound] . Output its Decrease of Fluorescence only.
Result string: 100%

Query string: // Input: Cn1cc(NC(=O)c2cc(NC(=O)CN=C(N)N)cn2C)cc1C(=O)NCCC(=N)N [NT, netropsin, reference compound] . Output its Decrease of Fluorescence only.
Result string: 74%

###

# System: poly(dG-dC)2
# test.method.notes: Ethidium displacement assay, DNA-binding constants
# reported.conditions: apparent association constant
Field: label. Allowed values: rule met (Kapp Poly (dG-dC)2 < 100000 M⁻¹) or rule not met (Kapp Poly (dG-dC)2 >= 100000 M⁻¹).

Some solved entries appear below for comparison.
Cn1cc(NC(=O)c2cc(NC(=O)CN=C(N)N)cn2C)cc1C(=O)NCCC(=N)N [NT, netropsin, reference compound] | rule not met
COc1cc(CC(=O)Nc2cnc(N)nc2)cc(OC)c1OC | rule met
COc1cc(CCC(=O)Nc2cnc(N)nc2)cc(OC)c1OC | rule met
COc1cc(CCC(=O)Nc2ccc(N)cc2)cc(OC)c1OC | rule not met
COc1cc(C(=O)Nc2ccc(N)cc2)cc(OC)c1OC | rule not met

Query string: Does the reported Kapp Poly (dG-dC)2 of the following compound sit strictly below 100000 M⁻¹? COc1cc(CC(=O)Nc2ccc(N)cc2)cc(OC)c1OC
Result string: rule not met

Query string: Does the reported Kapp Poly (dG-dC)2 of the following compound sit strictly below 100000 M⁻¹? COc1cc(C(=O)Nc2cnc(N)nc2)cc(OC)c1OC
Result string: rule not met

###

# System: T4 coliphage DNA
# test.method.notes: Ethidium displacement assay, DNA-binding constants
# reported.conditions: apparent association constant
Could you label it true (1) if measured Kapp T4 DNA is 300000 M⁻¹ or higher, and false (0) otherwise?

Some solved entries appear below for comparison.
COc1cc(CCC(=O)Nc2ccc(N)cc2)cc(OC)c1OC [Compound 6] | false (0)
COc1cc(CC(=O)Nc2cnc(N)nc2)cc(OC)c1OC [Compound 2] | false (0)
Cn1cc(NC(=O)c2cc(NC(=O)CN=C(N)N)cn2C)cc1C(=O)NCCC(=N)N [NT, netropsin, reference compound] | true (1)

Query string: Does COc1cc(C(=O)Nc2ccc(N)cc2)cc(OC)c1OC [Compound 4] have a reported Kapp T4 DNA of at least 300000 M⁻¹?
Result string: true (1)

Query string: Does COc1cc(CC(=O)Nc2ccc(N)cc2)cc(OC)c1OC [Compound 5] have a reported Kapp T4 DNA of at least 300000 M⁻¹?
Result string: true (1)

Query string: Does COc1cc(CCC(=O)Nc2cnc(N)nc2)cc(OC)c1OC [Compound 3] have a reported Kapp T4 DNA of at least 300000 M⁻¹?
Result string: true (1)

Query string: Does COc1cc(C(=O)Nc2cnc(N)nc2)cc(OC)c1OC [Compound 1] have a reported Kapp T4 DNA of at least 300000 M⁻¹?
Result string: false (0)

###

The reader will find reported Kapp values listed item by item below.
# System: poly(dA-dT)2 (DNA, polymer) AT
# test.method.notes: ethidium bromide displacement fluorescence
# reported.conditions: Na+ 1 M; 0.1 M Tris pH 8.0, room temperature; ethidium displaced; apparent

Below, 6 compounds whose answers are already recorded.
COc1cc(C(=O)Nc2ccc(N)cc2)cc(OC)c1OC | 7.9 ± 0.2 × 10^5 M^-1
COc1cc(CCC(=O)Nc2cnc(N)nc2)cc(OC)c1OC | 3.6 ± 0.2 × 10^5 M^-1
COc1cc(CC(=O)Nc2ccc(N)cc2)cc(OC)c1OC | 14 ± 0.2 × 10^5 M^-1
COc1cc(C(=O)Nc2cnc(N)nc2)cc(OC)c1OC | 11.7 ± 0.2 × 10^5 M^-1
Cn1cc(NC(=O)c2cc(NC(=O)CN=C(N)N)cn2C)cc1C(=O)NCCC(=N)N [NT, netropsin, reference compound] | 8.75e+07 M⁻¹
COc1cc(CC(=O)Nc2cnc(N)nc2)cc(OC)c1OC | 3.9 ± 0.2 × 10^5 M^-1

The record that follows has no Kapp shown yet.
Query string: // Input: COc1cc(CCC(=O)Nc2ccc(N)cc2)cc(OC)c1OC . Output its Kapp only.
Result string: 4.2 ± 0.2 × 10^5 M^-1

###

# assayed.system: recombinant human DHFR enzyme (Homo sapiens, UniProt P00374)
# Sequence (P00374 whole entry): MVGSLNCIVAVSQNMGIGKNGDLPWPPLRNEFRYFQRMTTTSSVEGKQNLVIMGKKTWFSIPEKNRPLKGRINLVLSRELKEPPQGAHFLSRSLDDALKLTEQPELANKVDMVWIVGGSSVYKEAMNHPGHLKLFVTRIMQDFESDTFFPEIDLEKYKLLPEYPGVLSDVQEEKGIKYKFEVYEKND
# test.method.notes: Dihydrofolate reductase (DHFR) inhibition assay
# reported.conditions: pH 7.5, 22 °C, absorbance 340 nm
The reader will find reported pIC50 values listed item by item below.
# pIC50: negative log10 of molar concentration; output just the value

COc1cc(CC(=O)Nc2cnc(N)nc2)cc(OC)c1OC [Compound 2] | 6.00

Query string: // Input: COc1cc(C(=O)Nc2ccc(N)cc2)cc(OC)c1OC [Compound 4] . Output its pIC50 only.
Result string: 5.99

Query string: // Input: COc1cc(C(=O)Nc2cnc(N)nc2)cc(OC)c1OC [Compound 1] . Output its pIC50 only.
Result string: 4.66

Query string: // Input: COc1cc(CCC(=O)Nc2ccc(N)cc2)cc(OC)c1OC [Compound 6] . Output its pIC50 only.
Result string: 4.82

Query string: // Input: COc1cc(CC(=O)Nc2ccc(N)cc2)cc(OC)c1OC [Compound 5] . Output its pIC50 only.
Result string: 4.80
